Values from PubChem BioAssay (NCI)

Exercise: state measured growth inhibition for each of the compounds provided.
test_name: NCI Yeast Anticancer Drug Screen. Data for the sgs1 mgt1 strain (AID 161);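 note: 0% = growth of cultures given vehicle only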
condition: S. cerevisiae sgs1 mgt1 strain, at 5.0 µM (retest, dose inferred, filed as 0.5), stronger effect = higher value
Compounds without any hit were thinned out: in the full panel of roughly 79,000, 15% have a hit.
One number for each entry, in %.

Please look at the items below and tell me growth inhibition for each one, in order.
1. N#Cc1c(/N=C/c2ccccc2Cl)sc2c1CCC2
2. CC(C)CC(Nc1c(O)ccc2ccccc12)C(=O)O (stereo unspecified)
3. CS(=O)(=O)OCCN(CCOS(C)(=O)=O)c1ccc(C=Nc2ccc(-c3csc(Cc4ccccc4)n3)cc2)c(Cl)c1

1. -1
2. 17
3. -22

Please look at the items below and tell me growth inhibition for each one, in order.
1. N#CC1Sc2ccccc2N1C(=O)OCc1ccccc1 (stereo unspecified)
2. O=C1NS(=O)(=O)c2ccccc21
3. O=C1C(CN2CCOCC2)CCCC1CN1CCOCC1 (stereo unspecified)
4. COc1c(O)cc2oc3cc(O)c(CC=C(C)C)c(O)c3c(=O)c2c1CC=C(C)C
5. CNC(=O)OCCN1c2ccccc2Sc2ccccc21
6. CC(=O)[O-].[O-]c1c(Cl)cc(Cl)cc1/C=N/Nc1ccccn1.[Zn+2]
7. CCCCCCCCCCCCCCCC[N+](C)(C)Cc1cnc[nH]1
8. CCCCCCCCCCCCN1C(=O)[N+](C)(C)N=C1[O-]

11
-11
2
99
8
4
98
7

---

test_name: NCI Yeast Anticancer Drug Screen. Data for the mec2-1 strain (AID 157)
condition: S. cerevisiae mec2-1 strain, at 5.0 µM (retest, dose inferred, filed as 0.5)
Compounds without any hit were thinned out: in the full panel of roughly 79,000, 15% have a hit. The source made the active and inactive calls. Rule as the data show it: active = growth inhibition above about 70%; inactive = the rest.
Response enum: True = active, False = inactive

Some solved entries appear below for comparison.
O=NC1C(Br)C2CC1C1C(Cl)C(Cl)CC21 (stereo unspecified) :: False
CCN(CC)CCNc1nc(NCCN(CC)CC)c2nc(-c3ccccc3)c(-c3ccccc3)nc2n1 :: True
Clc1nc(Cl)c(Cl)c(Cl)n1 :: False

What call does the record list for "COc1ccc(/C=C/NC=O)cc1" ? False

What call does the record list for CCSSc1ccccc1C(=O)NC(CC)CO (stereo unspecified) ? False

What call does the record list for "Cn1c2nc3ccccc3c-2cc2ccccc21" ? False

What call does the record list for CC(NNC(=S)N1CCN(c2ccccn2)CC1)c1nccc2ccccc12 (stereo unspecified) ? False

What call does the record list for "CCOC(=O)C1=C(C(=O)c2ccc(OC)cc2)C(c2c(Cl)cccc2Cl)C(C(=O)c2ccc(OC)cc2)=C(C(=O)OCC)N1" ? False

What call does the record list for NC(CCCCNC(=O)c1ccccc1)C(=O)O (stereo unspecified) ? False

What call does the record list for CC12CCC3c4ccc(O)cc4CCC3C1CCC2S (stereo unspecified) ? False

What call does the record list for COc1ccc2c(c1)C(Cc1ccc(Oc3ccc(CC4c5cc(OC)ccc5CC[N+]4(C)C)cc3)cc1)[N+](C)(C)CC2 (stereo unspecified) ? False

---

test_name: NCI Yeast Anticancer Drug Screen. Data for the mec2-1 strain (AID 157)
condition: S. cerevisiae mec2-1 strain, at 50.0 µM, stronger effect = higher value
The panel holds about 79,000 compounds, 15% with a hit somewhere; the sample as a whole holds those more often.
# growth inhibition >= 90% gives Satisfied, anything below gives Not satisfied

O=C(N/C=C/C=C/Sc1ccccc1)OCc1ccccc1 :: Not satisfied
CN(C)c1ccc(/C=C/c2ccc3ccccc3[n+]2C)cc1 :: Satisfied
O=C(O)c1ccc(Nc2cnc3ccc(C(F)(F)F)cc3n2)cc1 :: Not satisfied
CCCCCCCCCCCCN1C(=O)[N+](C)(C)N=C1[O-] :: Satisfied
Fc1cccc(CSC(=S)Nc2ccc(F)c(F)c2)c1 :: Satisfied

Lab note: next compound to report on.
Reported growth inhibition at or above 90%? "COc1cc(OC)c(OC)cc1/C=C\c1ccnc2ccccc12" Not satisfied
